Tgt: T1, IpsA-Strep (Corynebacterium glutamicum ATCC 13032, UniProt Q8NMF0 1-358)
T1 sequence: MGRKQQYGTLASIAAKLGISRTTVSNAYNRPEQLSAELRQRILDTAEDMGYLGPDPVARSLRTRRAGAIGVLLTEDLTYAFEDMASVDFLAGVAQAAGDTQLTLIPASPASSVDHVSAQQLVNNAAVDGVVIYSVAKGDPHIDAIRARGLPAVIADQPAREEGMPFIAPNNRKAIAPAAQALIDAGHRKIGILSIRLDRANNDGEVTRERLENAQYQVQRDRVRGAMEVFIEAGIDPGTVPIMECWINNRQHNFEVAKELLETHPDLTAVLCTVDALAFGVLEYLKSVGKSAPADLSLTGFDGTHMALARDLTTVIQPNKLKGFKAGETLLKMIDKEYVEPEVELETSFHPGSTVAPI
Assay remarks: EMSA; EMSA: 50 mM Tris-HCl pH 7.5, 40 mM KCl, 5 mM MgCl2, room temperature, 10 uL, DNA 0.028-1 uM, 10-15% native PAGE
Particulars: protein: recombinant; tags: C-terminal STREP-tag; chain copies: 2; blunt
Measurement label: binding result

binder="cg3323 M3 (dsDNA) DNA 1: TTGAGTTGCTTGCGAGATCAGGTCTGATTT DNA 2: AAATCAGACCTGATCTCGCAAGCAACTCAA" value="no binding"
binder="cg3323 M5 (dsDNA) DNA 1: TTGAGTTGCTTGATCGATACTGTCTGATTT DNA 2: AAATCAGACAGTATCGATCAAGCAACTCAA" value=binds
binder="cg3323 M4 (dsDNA) DNA 1: TTGAGTTGCTTGATCTCGCAGGTCTGATTT DNA 2: AAATCAGACCTGCGAGATCAAGCAACTCAA" value="no binding"
binder="cg3323 WT 30-mer (dsDNA) DNA 1: TTGAGTTGCTTGATCGATCAGGTCTGATTT DNA 2: AAATCAGACCTGATCGATCAAGCAACTCAA" value=binds

Each recorded value in this set is attributed to paper PMC3899939.
